Reported GI50 values for the following compounds.
test system: MCF7; experiment: Growth inhibition of human MCF7 cells after 48 hrs by SRB assay; type: functional; details: MCF7, 48 h
Kindly answer with a numeric value in nM, unit omitted.

Some compounds with recorded GI50:
Please report the recorded GI50 for COc1ccc(/C=C\c2cc(OC)c(OC)c(OC)c2)cc1OCC(=O)Nc1nc2ccc(F)cc2s1 .
2300

Please report the recorded GI50 for COc1ccc(/C=C\c2cc(OC)c(OC)c(OC)c2)cc1OCC(=O)Nc1nc2ccc(C(F)(F)F)cc2s1 .
3160

New cases:
Please report the recorded GI50 for COc1ccc2nc(NC(=O)COc3cc(/C=C\c4cc(OC)c(OC)c(OC)c4)ccc3OC)sc2c1 .
2880
